System: HL-60
Experiment description: Antiproliferative activity against human HL60 cell line
Type: functional, cell-based
Setup conditions: hl-60
Reported endpoint: pIC50
// returns pIC50 (minus log10 of molar concentration), number only

Incoming: Report pIC50 for O=[N+]([O-])c1ccc(Cl)c([N+](=O)[O-])c1 [DINITROCHLOROBENZENE]
Outgoing: 5.85
